# Test system: human breast adenocarcinoma MDA-MB-231 cell line
# ASSAY METHOD TEXT: Cytotoxicity: cell growth inhibition in cultures, viable cells counted by trypan blue exclusion
# Format: cell-based
# CONDITION SUMMARY: sodium salt in saline; final 4 × 10^−8 mol/L; day 1; three days
# Procedure: The cell line was propagated by cultivation in Nunclon 25 cm^2 flasks (Nunc A/S, Denmark) in Minimum Essential Medium Eagle (MEM), containing antibiotics and supplemented with 10% (v/v) fetal bovine serum (FBS) (Sigma, St. Louis, Mo., USA). […] At the end of the incubation period, adherent cells were detached by trypsinization and the number of viable cells was counted using trypan blue dye exclusion test and a hemocytometer. […]
Entries and their number of living cells

Study these solved cases before continuing.
{"columns": ["COMPOUND", "number of living cells"],
 "data": [
  ["CC1=C(/C=C/C(C)=C/C=C/C(C)=C/C(=O)N[C@@H](CCS(=O)(=O)O)C(=O)O)C(C)(C)CCC1 [Compound III]", "36.5 ± 2.08 × 10^3"],
  ["CC1=C(/C=C/C(C)=C/C=C/C(C)=C\\C(=O)N[C@@H](CCS(=O)(=O)O)C(=O)O)C(C)(C)CCC1 [Compound IV, N-(13-cis-Retinoyl)-L-homocysteic acid]", "37.1 ± 2.56 × 10^3"],
  ["CC1=C(/C=C/C(C)=C/C=C/C(C)=C\\C(=O)N[C@@H](CS(=O)(=O)O)C(=O)O)C(C)(C)CCC1 [Compound II, N-(13-cis-Retinoyl)-L-cysteic acid]", "31.2 ± 2.33 × 10^3"]
]}

Let us examine a further case.
Inquiry: Given CC1=C(/C=C/C(C)=C/C=C/C(C)=C/C(=O)N[C@@H](CS(=O)(=O)O)C(=O)O)C(C)(C)CCC1 [Compound I, N-(all-trans-Retinoyl)-L-cysteic acid] , state its recorded number of living cells.
Reply text: 31.2 ± 1.72 × 10^3
